- Tested on: CDKL2;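 note: KINOMEscan kinase panel screen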
- experimental.setup: concentration: 1 μM, replicates: in singlicate; n = 1
%Inh of 4% or higher: Fulfilled. Under 4%: Not fulfilled.

Observe how each entry below is paired with its result.
compound	system.tested	class
Cl.Nc1ncnc2occ(-c3ccc(NC(=O)Nc4cc(C(F)(F)F)ccc4F)cc3)c12	CDKL2	Fulfilled
Cc1nnc(-c2ccc3occ(-c4ccc(C(C)O)cc4)c3c2)o1 (centres unmarked)	CDKL2	Not fulfilled
O=c1cc(N2CCOCC2)nc2n(Cc3cccc(Cl)c3Cl)c(C3CC3)nn12	CDKL2	Not fulfilled
COc1cc2c(cc1OC[C@@H](O)CO)ncc1c3ccc(C#N)cc3[nH]c21	CDKL2	Not fulfilled
COc1cc2c(cc1OCCN1CCN(C)CC1)ncc1c3ccc(C#N)cc3[nH]c21	CDKL2	Fulfilled

In plain terms: is recorded %Inh at least 4% for COCCNC(=O)c1ccc(-c2cc(C(=O)NC3CC3)cc(F)c2C)cc1 ? Fulfilled
